Recorded nuclear beta-catenin stimulation, one value per entry.
Test: stimulators of nuclear beta-catenin in C2C12, primary screen, imaging, WNT3A-conditioned medium, mouse C2C12, NPC library (AID 1117326); note: reference of the scale not given here
Settings: stimulation, at 2 µM, stronger effect = higher value
# output: bare number, implied unit %

Here are 5 compounds together with their reported answers.
O=S(=O)(O)c1ccc2nc(-c3ccccc3)[nH]c2c1 | 0.5
CC(C)CCC[C@@H](C)[C@H]1CC[C@H]2[C@@H]3CC[C@H]4C[C@@H](O)CC[C@]4(C)[C@@H]3CC[C@]12C | 0.5
Cc1onc(-c2ccccc2Cl)c1C(=O)Cl | -0.5
COc1c(N2CCNC(C)C2)c(F)cc2c(=O)c(C(=O)O)cn(C3CC3)c12 (configuration not stated) | 2.5
O=P(O)(O)OCC(O)CO (configuration not stated) | 0.5

[in] Could you share which nuclear beta-catenin stimulation value was measured for `CCN1CCN(c2cc(-c3ccc(F)cc3)c3c(n2)CCCCCC3)CC1` ?
[out] -3.3

[in] Could you share which nuclear beta-catenin stimulation value was measured for `CCCCN=C(N)N=C(N)N` ?
[out] 0.9

[in] Could you share which nuclear beta-catenin stimulation value was measured for `CO[C@@]1(NC(=O)CSC[C@@H](N)C(=O)O)C(=O)N2C(C(=O)O)=C(CSc3nnnn3C)CS[C@@H]21` ?
[out] -1.7

[in] Could you share which nuclear beta-catenin stimulation value was measured for `CN(C)C(=O)Oc1ccc[n+](C)c1` ?
[out] 10.5

[in] Could you share which nuclear beta-catenin stimulation value was measured for `CCOC(=O)c1ccc(NC(=O)CN2CCCCC2)cc1` ?
[out] -1.8

[in] Could you share which nuclear beta-catenin stimulation value was measured for `CC(C)(C)c1cc(C=O)cc(C(C)(C)C)c1O` ?
[out] 4.1

[in] Could you share which nuclear beta-catenin stimulation value was measured for `CCCCCCCCCCCCCCCC[N+](C)(C)Cc1ccccc1` ?
[out] 0.7
